- subject.of.test: human GLP-1 receptor (human, UniProt P43220 24-463)
- test.method.notes: cell-based or functional assay
Where no end group is shown, it is not given here. [ ]: non-standard residue; d: D form. Bip(2'-Et-4'-OMe) = CCc1cc(OC)ccc1-c1ccc(C[C@H](N)C(=O)O)cc1; αMePhe(2,6-F2) = C[C@](N)(Cc1c(F)cccc1F)C(=O)O; αMeBip(OMe) = alpha-methylated Bip(OMe); hhPhe = N[C@@H](CCCc1ccccc1)C(=O)O; αMeD = C[C@](N)(CC(=O)O)C(=O)O; αMeP = C[C@@]1(C(=O)O)CCCN1; αMeAPPA = not defined here; αMeS = C[C@](N)(CO)C(=O)O; Aib = CC(C)(N)C(=O)O
measured.property: cAMP release, % activity with respect to control, at 1 nM

[[record]]
binder = "VH[Aib]EGTFTSD[Bip(2'-Et-4'-OMe)][αMeAPPA] (not fully specified (C-terminus); printed as VH-Aib-EGTFTSD-Bip(OMe)-(αMe-APPA); reading uncertain) [Seq. ID. No. 89]"
reading = "93 % of control"

[[record]]
binder = "VHSQGT[αMePhe(2,6-F2)]TS[αMeD][αMeBip(OMe)][αMeAPPA] (not fully specified (C-terminus); reading uncertain) [Seq. ID. No. 197]"
reading = "96 % of control"

[[record]]
binder = "VH[Aib]EGT[αMePhe(2,6-F2)]T[αMeS][αMeD][Bip(2'-Et-4'-OMe)][αMeAPPA] (not fully specified (C-terminus); reading uncertain) [Seq. ID. No. 129]"
reading = "51 % of control"

[[record]]
binder = "VH[αMeP]QGTFT[αMeS][αMeD][Bip(2'-Et-4'-OMe)][αMeAPPA] (not fully specified (C-terminus); printed as VH-(αMe-Pro)-QGTFT-(αMe-Ser)-(αMe-Asp)-Bip(OMe)-(αMe-APPA); reading uncertain) [Seq. ID. No. 110]"
reading = "99 % of control"

[[record]]
binder = "VH[αMeP]QGT[αMePhe(2,6-F2)]TS[αMeD][αMeBip(OMe)][hhPhe] (not fully specified (C-terminus)) [Seq. ID. No. 76]"
reading = "66 % of control"


// data source = patent US20120264685A1
